MEASURED TARGET: Melanin-concentrating hormone receptor 2 (Homo sapiens) (UniProt Q969V1)
Sequence (Q969V1 whole entry): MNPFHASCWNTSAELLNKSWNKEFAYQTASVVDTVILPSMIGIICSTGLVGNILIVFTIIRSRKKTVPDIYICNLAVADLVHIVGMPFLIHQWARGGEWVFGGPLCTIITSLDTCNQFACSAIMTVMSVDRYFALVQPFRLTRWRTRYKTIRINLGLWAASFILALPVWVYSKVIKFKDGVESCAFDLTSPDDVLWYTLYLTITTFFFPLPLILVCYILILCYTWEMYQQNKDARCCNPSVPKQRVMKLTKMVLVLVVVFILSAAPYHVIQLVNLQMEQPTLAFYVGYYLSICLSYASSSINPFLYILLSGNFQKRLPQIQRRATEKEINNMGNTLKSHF
ASSAY PROTOCOL: Binding activity against human MCH-R2
Calls of active or inactive are those of the source. The rule behind the calls is not given here.

COMPOUND: CN1CCN(CCCN(c2nc3cc(F)c(F)cc3[nH]2)[C@@H]2CCC3(c4cccc(CN5CCCC5)c4)C[C@@H]3C2)CC1 (single isomer, unassigned)
inhibition: inactive
--
COMPOUND: CN1CCN(CCCN(c2nc3cc(Cl)c(Cl)cc3[nH]2)[C@@H]2CCC3(c4cccc(CN5CCOCC5)c4)C[C@@H]3C2)CC1 (single isomer, unassigned)
inhibition: inactive
--
COMPOUND: CN1CCN(CCCN(c2nc3cc(F)c(F)cc3[nH]2)[C@@H]2CCC3(c4cccc(CN5CCN(C)CC5)c4)C[C@@H]3C2)CC1 (single isomer, unassigned)
inhibition: inactive
--
COMPOUND: CN1CCN(CCCN(c2nc3cc(Cl)c(Cl)cc3[nH]2)[C@@H]2CCC3(c4cccc(C=O)c4)C[C@@H]3C2)CC1 (single isomer, unassigned)
inhibition: inactive
--
COMPOUND: CN1CCN(CCCN(c2nc3cc(F)c(F)cc3[nH]2)[C@@H]2CC[C@]3(c4cccc(CN5CC[C@H](O)C5)c4)C[C@@H]3C2)CC1
inhibition: inactive
--
COMPOUND: CN1CCN(CCCN(c2nc3cc(F)c(F)cc3[nH]2)[C@@H]2CCC3(c4cccc(CN5CCCCC5)c4)C[C@@H]3C2)CC1 (single isomer, unassigned)
inhibition: inactive

---

Tested on: Mus musculus
ASSAY PROTOCOL: Inhibition of ex vivo MCH-ADO binding in mice 6 hours after 30mg/kg peroral dose
Type: functional
PROTOCOL CONDITIONS: po
Threshold rule: inhibition in vivo at 30 mg/kg greater than or equal to 90% is MET; below that, NOT MET.

COMPOUND: CN1CCN(CCCN(c2nc3cc(F)c(Cl)cc3[nH]2)[C@@H]2CC[C@]3(c4ccc(C#N)cc4)C[C@H]23)CC1
CLASS LABEL: MET

COMPOUND: CN1CCN(CCCN(c2nc3cc(F)c(F)cc3[nH]2)[C@@H]2CCC3(c4cccc(C#N)c4)C[C@@H]3C2)CC1 (single isomer, unassigned)
CLASS LABEL: NOT MET

COMPOUND: CS(=O)(=O)N1CCC(CN(c2nc3cc(F)c(F)cc3[nH]2)[C@@H]2CCC3(c4cccc(C#N)c4)C[C@@H]3C2)CC1 (single isomer, unassigned)
CLASS LABEL: NOT MET

COMPOUND: CN1CCN(CCCN(c2nc3cc(Cl)c(Cl)cc3[nH]2)[C@@H]2CCC3(c4cccc(C#N)c4)C[C@@H]3C2)CC1 (single isomer, unassigned)
CLASS LABEL: NOT MET

COMPOUND: CS(=O)(=O)N1CCC(CN(c2nc3cc(Cl)c(Cl)cc3[nH]2)[C@@H]2CCC3(c4cccc(C#N)c4)C[C@@H]3C2)CC1 (single isomer, unassigned)
CLASS LABEL: NOT MET

---

Here, each record is paired with measured AUC data.
ASSAY PROTOCOL: AUC in rats following 10 mg/kg peroral dose
Type: ADME, organism-based
Set-up: dose 10 mg/kg, route oral
PROTOCOL CONDITIONS: rat, plasma, po
QUANTITY MEASURED: AUC (ng·h/mL)

COMPOUND: CN1CCN(CCCN(c2nc3cc(F)c(F)cc3[nH]2)[C@@H]2CCC3(c4cccc(C#N)c4)C[C@@H]3C2)CC1 (single isomer, unassigned)
RECORDED VALUE: 293
//
COMPOUND: CN1CCN(CCCN(c2nc3cc(F)c(F)cc3[nH]2)[C@@H]2CC[C@]3(c4cccc(C#N)c4)C[C@H]23)CC1
RECORDED VALUE: 1490
//
COMPOUND: CS(=O)(=O)N1CCC(CN(c2nc3cc(F)c(F)cc3[nH]2)[C@@H]2CCC3(c4cccc(C#N)c4)C[C@@H]3C2)CC1 (single isomer, unassigned)
RECORDED VALUE: 350
//
COMPOUND: CN1CCN(CCCN(c2nc3cc(Cl)c(F)cc3[nH]2)[C@@H]2CC[C@]3(c4cccc(C#N)c4)C[C@H]23)CC1
RECORDED VALUE: 1920
//
COMPOUND: CN1CCN(CCCN(c2nc3cc(F)c(C(F)(F)F)cc3[nH]2)[C@@H]2CC[C@]3(c4ccc(C#N)cc4)C[C@H]23)CC1
RECORDED VALUE: 2800
//
COMPOUND: CN1CCN(CCCN(c2nc3cc(Cl)c(Cl)cc3[nH]2)[C@@H]2CCC3(c4cccc(C#N)c4)C[C@@H]3C2)CC1 (single isomer, unassigned)
RECORDED VALUE: 965

---

Read-out record for UniProt:Q99705: pKi
Sequence (Q99705 whole entry): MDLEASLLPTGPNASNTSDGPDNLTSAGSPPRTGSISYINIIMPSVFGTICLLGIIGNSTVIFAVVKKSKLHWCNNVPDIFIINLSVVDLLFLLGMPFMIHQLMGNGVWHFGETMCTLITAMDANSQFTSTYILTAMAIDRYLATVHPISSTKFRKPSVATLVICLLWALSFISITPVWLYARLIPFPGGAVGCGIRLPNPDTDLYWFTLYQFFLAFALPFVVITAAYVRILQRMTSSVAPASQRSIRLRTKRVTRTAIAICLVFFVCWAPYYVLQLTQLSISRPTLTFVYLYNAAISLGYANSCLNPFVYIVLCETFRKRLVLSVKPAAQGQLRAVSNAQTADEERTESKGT
pKi: −log10 of the molar value.

COMPOUND: CO/N=C/c1cccc([C@]23CC[C@@H](N(CCCN4CCN(C)CC4)c4nc5cc(F)c(F)cc5[nH]4)C[C@H]2C3)c1
pKi: 7.55
--
COMPOUND: CS(=O)(=O)N1CCC(CN(c2nc3cc(F)c(F)cc3[nH]2)[C@@H]2CCC3(c4cccc(C#N)c4)C[C@@H]3C2)CC1 (single isomer, unassigned)
pKi: 7.57
--
COMPOUND: CN1CCN(CCCN(c2nc3cc(Cl)c(Cl)cc3[nH]2)[C@@H]2CCC3(c4cccc(CN5CCOCC5)c4)C[C@@H]3C2)CC1 (single isomer, unassigned)
pKi: 7.85
--
COMPOUND: CN(C)Cc1cccc(C23CC[C@@H](N(CCCN4CCN(C)CC4)c4nc5cc(F)c(F)cc5[nH]4)C[C@H]2C3)c1 (single isomer, unassigned)
pKi: 6.48
--
COMPOUND: CC(C)(C)OC(=O)N1CCC(CN(c2nc3cc(Cl)c(Cl)cc3[nH]2)[C@@H]2CCC3(c4cccc(C#N)c4)C[C@@H]3C2)CC1 (single isomer, unassigned)
pKi: 5.94
